test.readout: melting point (°C)

compound: Cc1cc(-n2nc(Nc3ccc(F)c(F)c3F)nc2C[C@H](C)O)cc(C)n1
result.unit: °C
melting point: 138

compound: CCNC(=O)C(C)c1nc(Nc2ccc3c(c2)OC(F)(F)O3)nn1-c1cc(C)nc(C)c1 (stereo not shown)
result.unit: °C
melting point: 244

compound: CN(C)C(=O)CCc1nc(Nc2ccc(F)c(C(F)(F)F)c2)nn1-c1ccncc1Cl
result.unit: °C
melting point: 181.7

compound: CC[C@H](O)Cc1nc(Nc2ccc(F)c(F)c2)nn1-c1cccc(F)c1
result.unit: °C
melting point: 158.1

compound: Cc1cc(-n2nc(Nc3cccc(Cl)c3F)nc2CC(=O)NC2CCC2)cc(C)n1
result.unit: °C
melting point: 234

compound: CN(C)C(=O)CCc1nc(Nc2ccc(F)c(F)c2)nn1-c1cccc(Cl)c1
result.unit: °C
melting point: 165.4

compound: CCNC(=O)Cc1nc(Nc2ccc(F)c(Cl)c2)nn1-c1cc(C)nc(C)c1
result.unit: °C
melting point: 283.2

compound: Cc1cc(-n2nc(Nc3ccc4c(c3)OC(F)(F)O4)nc2CC(=O)NC2CCC2)cc(C)n1
result.unit: °C
melting point: 291.3

A: COc1cc(Cl)cc(Nc2nc(CC(=O)NC3CC3)n(-c3cc(C)nc(C)c3)n2)c1
B: CNC(=O)CCc1nc(Nc2cccc(OC(F)(F)F)c2)nn1-c1ccnc(C)c1
C: COCCCc1nc(Nc2ccc(F)c(C(F)(F)F)c2)nn1-c1ccncc1Cl
Task field, ranking: reported melting point, descending order. Labels, requested order.
A, B, C
(A: 264.4 °C, B: 153.7 °C, C: 105.3 °C)

a: Cc1ncccc1-n1nc(Nc2ccc3c(c2)OC(F)(F)O3)nc1CCC(=O)N(C)C
b: Cc1cc(-n2nc(Nc3ccc(F)c(F)c3)nc2C[C@H](C)O)cc(C)n1
Dear colleague, could you let me know whether a or b has the lower recorded melting point? Thanks. Selection: enter the item's label.
a
(a: 151.7 °C, b: 225.7 °C)

a: CC[C@H](O)Cc1nc(Nc2cc(OC)cc(C(F)(F)F)c2)nn1-c1ccc(C)nc1
b: Cc1cc(-n2nc(Nc3ccc(F)c(F)c3F)nc2CC(=O)NC2CC2)cc(C)n1
Which shows the larger melting point value: a or b ? Choose, then provide that item's label.
b

P: CC[C@@H](O)Cc1nc(Nc2cc(OC)cc(C(F)(F)F)c2)nn1-c1cc(C)nc(C)c1
Q: Cc1cc(-n2nc(Nc3ccc(F)c(F)c3)nc2C[C@@H](C)O)ccn1
Given the two records P and Q , choose the one whose melting point value is lower. Lab note: record the label of whichever item you select.
P

====

measurement.target: hα7-wt nAChR-expressing GH4Cl cells (Homo sapiens)
Construct: expressed in transfected cells
test: Patch-clamp current recording (whole-cell), potentiation of choline 1 mM response, PAM type
Type: cell-based
study.conditions: according to Ex. D.2; "<5" = no top plateau reached at maximal concentration; read-out: Potency (pEC50) (converted)
Protocol: The compounds of the present invention are classified as type 1-4, based on qualitative kinetic properties, as determined by whole-cell voltage-clamp recordings. This classification is based on the effect of an α7 PAM compound, as described hereinbefore, on the signal elicited by an agonist application. In particular, said agonist is choline at a concentration of 1 mM. […]
test.readout: EC50 (nM)

These solved cases illustrate the format of a correct answer.
structure.as.smiles: Cc1nccc(-n2nc(Nc3cccc(Cl)c3F)nc2CC(=O)NC2CCC2)c1C
EC50 / nM: 1580

structure.as.smiles: CN(C)C(=O)CCc1nc(Nc2ccc(F)c(F)c2)nn1-c1ccc(Cl)cc1
EC50 / nM: 245

structure.as.smiles: CC[C@H](O)Cc1nc(Nc2ccc(F)c(F)c2F)nn1-c1cc(C)nc(C)c1
EC50 / nM: 269

A: CC[C@H](O)Cc1nc(Nc2ccc(F)c(F)c2)nn1-c1cccc(F)c1
B: CC[C@H](O)Cc1nc(Nc2cc(F)c(F)c(F)c2)nn1-c1cc(C)nc(C)c1
Param metric = EC50; output whichever of A , B has the minimum value. Respond using the label that marks the chosen record.
B

====

measurement.target: hα7-wt nAChR-expressing cells (Homo sapiens, UniProt P36544)
Construct: expressed in transfected cells; host or cells: hα7-wt nAChR-expressing cells
Sequence (P36544 23-502): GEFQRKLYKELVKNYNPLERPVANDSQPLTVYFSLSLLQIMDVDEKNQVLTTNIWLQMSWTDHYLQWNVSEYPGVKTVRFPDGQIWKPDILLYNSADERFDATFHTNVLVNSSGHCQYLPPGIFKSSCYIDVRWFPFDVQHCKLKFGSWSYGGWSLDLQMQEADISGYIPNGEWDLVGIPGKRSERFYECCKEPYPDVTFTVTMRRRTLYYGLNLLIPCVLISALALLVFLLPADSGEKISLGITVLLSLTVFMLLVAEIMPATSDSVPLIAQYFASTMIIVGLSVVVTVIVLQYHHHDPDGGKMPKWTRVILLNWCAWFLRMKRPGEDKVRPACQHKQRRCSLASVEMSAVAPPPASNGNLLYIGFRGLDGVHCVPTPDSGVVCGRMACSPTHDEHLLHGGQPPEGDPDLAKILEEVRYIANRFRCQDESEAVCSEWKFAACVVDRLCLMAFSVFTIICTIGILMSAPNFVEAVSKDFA
test: Ca2+ flux imaging (FDSS) (Protocol B), PAM activity with choline 100 μM
Type: cell-based
study.conditions: according to Ex. D.1b; read-out: % Efficacy
test.readout: Emax (%)

structure.as.smiles: COc1ccc(-n2nc(Nc3cccc(OC(F)(F)F)c3)nc2CCC(=O)N(C)C)cc1
measurement.target: hα7-wt nAChR-expressing cells (Homo sapiens, UniProt P36544)
test.readout: Emax
obs.value: 718
//
structure.as.smiles: Cc1cc(-n2nc(Nc3cccc(Cl)c3F)nc2CC(=O)NC2CCC2)c(C)cn1
measurement.target: hα7-wt nAChR-expressing cells (Homo sapiens, UniProt P36544)
test.readout: Emax
obs.value: 592
//
structure.as.smiles: Cc1cc(-n2nc(Nc3ccc(F)c(C(F)(F)F)c3)nc2CC(=O)NC2CC2)cc(C)n1
measurement.target: hα7-wt nAChR-expressing cells (Homo sapiens, UniProt P36544)
test.readout: Emax
obs.value: 711
//
structure.as.smiles: CNC(=O)CCc1nc(Nc2ccc(F)c(F)c2)nn1-c1ccc(OC(F)(F)F)cc1
measurement.target: hα7-wt nAChR-expressing cells (Homo sapiens, UniProt P36544)
test.readout: Emax
obs.value: 698

====

measurement.target: hα7-wt nAChR-expressing GH4Cl cells (Homo sapiens)
Construct: expressed in transfected cells
test: Patch-clamp current recording (whole-cell), potentiation of choline 1 mM response, PAM type
Assay type: cell-based
Parameters: key: Type 0 compounds minimally enhance the effect size of the current elicited by 1 mM choline.; Type 1 compounds enhance the effect size of the current elicited by 1 mM choline but minimally alter the kinetics of the receptor.; Type 2 compounds enhance the effect size of the current elicited by 1 mM choline while reducing the rate and/or the extent of desensitization.; Type 3 compounds enhance the effect size of the current elicited by 1 mM choline. When tested at higher concentrations up to 10 μM they completely inhibit desensitization, in particular a 1 mM choline application of 250 milliseconds.; Type 4 compounds allow for an initial desensitization of the receptor followed by a re-opening of the receptor during agonist application
study.conditions: patch-clamp current recording, 1 mM choline
test.readout: Pam type
The reply should be a number, written without any unit.

Some compounds with recorded Pam type:
structure.as.smiles: Cc1cc(-n2nc(Nc3cccc(Cl)c3F)nc2CC(=O)NC2CC2)c(C)cn1
Pam type: 2
//
structure.as.smiles: CN(C)C(=O)CCc1nc(Nc2ccc(F)c(C(F)(F)F)c2)nn1-c1ccc2c(c1)OCCO2
Pam type: 4
//
structure.as.smiles: COc1ccc(-n2nc(Nc3cc(F)c(F)c(Br)c3)nc2CCC(=O)N(C)C)cc1
Pam type: 1
//
structure.as.smiles: COc1ccc(Nc2nc(CC(=O)NC3CC3)n(-c3cc(C)nc(C)c3)n2)cc1C(F)(F)F
Pam type: 4
//
structure.as.smiles: CNC(=O)Cc1nc(Nc2cc(Cl)cc(OC)c2)nn1-c1cc(C)nc(C)c1
Pam type: 4
//
structure.as.smiles: Cc1cc(-n2nc(Nc3ccc(F)c(F)c3)nc2CC(=O)NCC2CC2)c(C)cn1
Pam type: 1

Which measured Pam type value corresponds to `Cc1cc(-n2nc(Nc3ccc(F)c(F)c3F)nc2CC(=O)NC2CCC2)cc(C)n1` ?
2

Quick one: Pam type for `CN(C)C(=O)CCc1nc(Nc2ccc(F)c(F)c2)nn1-c1ccncc1` ?
4

Record request: Pam type value, item `Cc1cc(-n2nc(Nc3cccc(C(F)(F)F)c3)nc2CC(=O)NCC2CC2)cc(C)n1`
2

# query: Pam type of entry `Cc1cc(-n2nc(Nc3ccc(F)c(F)c3F)nc2CC(=O)NC(C)C)cc(C)n1`
2

What measured Pam type goes with `Cc1cc(-n2nc(Nc3ccc(F)c(F)c3)nc2C[C@@H](C)O)ccn1` ?
2

====

measurement.target: hα7-wt nAChR-expressing GH4Cl cells (Homo sapiens, UniProt P36544)
Construct: expressed in transfected cells
Sequence (P36544 23-502): as above
test: Patch-clamp current recording (whole-cell), potentiation of choline 1 mM response, PAM type
Assay type: cell-based
study.conditions: according to Ex. D.2; "<5" = no top plateau reached at maximal concentration; read-out: Potency (pEC50) (converted)
test.readout: EC50 (nM)

The cases that follow already have their EC50 on record.
molecule: Cc1cc(-n2nc(Nc3ccc(F)c(Cl)c3)nc2CC(=O)NC2CCC2)cc(C)n1 [E231]
obs.value: 57.5

molecule: CC[C@H](O)Cc1nc(Nc2ccc(F)c(F)c2F)nn1-c1ccnc(C)c1 [E130]
obs.value: 269

molecule: CN(C)C(=O)CCc1nc(Nc2ccc3c(c2)OC(F)(F)O3)nn1-c1cccnc1Cl [E118]
obs.value: 692

P: Cc1cc(-n2nc(Nc3cc(F)c(F)cc3F)nc2C[C@H](C)O)cc(C)n1 [E194]
Q: CN(C)C(=O)CCc1nc(Nc2ccc(F)c(C(F)(F)F)c2)nn1-c1ccncc1Cl [E74]
Lower value for measured EC50? Options: P , Q Give the chosen item's label as your response.
Q
(Q: 72.4 nM, P: 5010 nM)

A: CCNC(=O)Cc1nc(Nc2cc(F)c(F)c(F)c2)nn1-c1cc(C)nc(C)c1 [E215]
B: CN(C)C(=O)CCc1nc(Nc2cccc(OC(F)(F)F)c2)nn1-c1cccnc1Cl [E76]
C: CC[C@H](O)Cc1nc(Nc2ccc(F)c(F)c2)nn1-c1ccnc(C)c1 [E30]
D: COc1ccc(-n2nc(Nc3ccc(F)c(F)c3)nc2CCC(=O)N(C)C)cc1 [E63]
E: COc1ccc(-n2nc(Nc3ccc4c(c3)OC(F)(F)O4)nc2CCC(=O)N(C)C)cc1 [E178]
Sort low-to-high on EC50, please. # list labels per requested ordering
E, D, A, B, C

1: Cc1cc(-n2nc(Nc3ccc(F)c(F)c3F)nc2CC(=O)NC2CCC2)cc(C)n1 [E212]
2: CC[C@H](O)Cc1nc(Nc2cccc(C(F)(F)F)c2)nn1-c1ccnc(C)c1 [E204]
Just tell me: smaller EC50 value, 1 or 2 ? Please reply using the label of the selected record.
1
(1: 251 nM, 2: 562 nM)
